Hey, just so you know, these numbers are from ChEMBL document CHEMBL1961873.

- SYSTEM_TESTED: Serine/threonine-protein kinase Nek6 (Homo sapiens);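 also: values are mean inhibition of NEK6 from the GSK PKIS screen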
- MEASUREMENT_PARAMETERS: at 1 µM
Recorded inhibition, one value per entry.
VALUE_TYPE: inhibition (%)

[[record]]
test_smiles = "NS(=O)(=O)c1ccc(N/N=C2\\C(=O)Nc3ccc(-c4cnco4)cc32)cc1"
value_type = "inhibition"
value_measured = 1.55

[[record]]
test_smiles = "CN1CCN(CCCNc2nc3ccc(Oc4ccc(NC(=O)Nc5cc(C(F)(F)F)ccc5F)cc4)cc3[nH]2)CC1"
value_type = "inhibition"
value_measured = -2.03

[[record]]
test_smiles = "COc1cc(C)c(N(C)C(=O)CN(C)C)cc1Nc1nc(Nc2cccc(F)c2C(N)=O)c2cc[nH]c2n1"
value_type = "inhibition"
value_measured = -1.46

[[record]]
test_smiles = "Fc1ccc(-c2ncn(C3CCNCC3)c2-c2ccnc(Oc3ccc4c(c3)OCO4)n2)cc1"
value_type = "inhibition"
value_measured = 1.67

[[record]]
test_smiles = "FC(F)(F)c1cccc(Nc2nccc(-c3cnn4nc(-c5ccccc5)ccc34)n2)c1"
value_type = "inhibition"
value_measured = -0.37

[[record]]
test_smiles = "COc1ccc(C2=C(N3CCc4ccccc43)C(=O)NC2=O)cc1"
value_type = "inhibition"
value_measured = 1.65

[[record]]
test_smiles = "COC(=O)Nc1nc2ccc(Sc3ccc(NC(=O)Nc4cc(C(F)(F)F)ccc4F)cc3)cc2[nH]1"
value_type = "inhibition"
value_measured = -0.98

[[record]]
test_smiles = "COc1cc(N2CCN(C(C)C)CC2)ccc1Nc1nc(Nc2ccc(F)cc2C(=O)NC[C@@H](O)CO)c2cc[nH]c2n1"
value_type = "inhibition"
value_measured = 3.84

[[record]]
test_smiles = "NCc1ccc(-n2c(-c3nonc3N)nc3cnccc32)cc1"
value_type = "inhibition"
value_measured = 3.42


* * *

- SYSTEM_TESTED: Death-associated protein kinase 1 (Homo sapiens);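 also: reported figure is the mean inhibition of DAPK1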
- MEASUREMENT_PARAMETERS: at 0.1 µM
inhibition by entry:
VALUE_TYPE: inhibition (%)

[[record]]
test_smiles = "CN(C)c1ccc2c(c1)/C(=C/Nc1ccc(S(N)(=O)=O)cc1)C(=O)N2"
unit_string = "%"
value_measured = 1.57

[[record]]
test_smiles = "O=C(Nc1n[nH]c2nc(-c3ccco3)ccc12)C1CC1"
unit_string = "%"
value_measured = 7.38

[[record]]
test_smiles = "Fc1ccc(-c2ncn(CCCN3CCOCC3)c2-c2ccncc2)cc1"
unit_string = "%"
value_measured = 0.52

[[record]]
test_smiles = "Fc1ccc(-c2c(-c3ccncc3)nc3n2CCS3)cc1"
unit_string = "%"
value_measured = -0.64

[[record]]
test_smiles = "Fc1ccc(-c2nc3n(c2-c2ccncc2)CCS3)cc1"
unit_string = "%"
value_measured = 2.36

[[record]]
test_smiles = "COc1cc(Nc2ncc3c(C)nc(-c4cccc(Oc5ccccc5)c4)n3n2)cc(OC)c1OC"
unit_string = "%"
value_measured = 8.86


* * *

- SYSTEM_TESTED: MAP kinase-activated protein kinase 2 (Homo sapiens) (UniProt P49137);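 also: figures are mean inhibition values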
- Sequence (P49137 whole entry, looked up): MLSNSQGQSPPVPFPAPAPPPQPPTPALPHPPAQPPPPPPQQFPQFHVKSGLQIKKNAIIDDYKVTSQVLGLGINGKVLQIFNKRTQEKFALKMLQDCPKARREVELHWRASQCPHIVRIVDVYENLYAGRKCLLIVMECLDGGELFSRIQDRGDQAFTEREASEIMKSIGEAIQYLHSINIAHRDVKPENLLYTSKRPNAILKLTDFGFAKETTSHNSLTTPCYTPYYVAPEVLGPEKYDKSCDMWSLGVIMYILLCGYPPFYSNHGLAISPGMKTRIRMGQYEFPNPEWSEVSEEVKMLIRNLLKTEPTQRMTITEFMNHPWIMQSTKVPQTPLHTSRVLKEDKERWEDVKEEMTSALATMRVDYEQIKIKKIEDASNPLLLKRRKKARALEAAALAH
- MEASUREMENT_PARAMETERS: at 0.1 µM
VALUE_TYPE: inhibition (%)

[[record]]
test_smiles = "COc1cc2ncn(-c3cc(OCCc4ccccc4)c(C(N)=O)s3)c2cc1OC"
value_measured = 0.61

[[record]]
test_smiles = "CNC(=O)c1cncc(/C=C/c2c(C)cccc2C)c1"
value_measured = 0.41

[[record]]
test_smiles = "CN(C)c1ccc2c(c1)/C(=C/Nc1ccc(S(N)(=O)=O)cc1)C(=O)N2"
value_measured = 0.97

[[record]]
test_smiles = "COc1cc2ncn(-c3cc(OCc4ccccc4C(F)(F)F)c(C(C)=O)s3)c2cc1OC"
value_measured = 1.03

[[record]]
test_smiles = "COc1cc2ncn(-c3cc(OCc4cccs4)c(C(N)=O)s3)c2cc1OC"
value_measured = 0.78

[[record]]
test_smiles = "NC(=O)c1cc(-c2ccncc2)cc(-c2ccccc2)c1N"
value_measured = -0.48

[[record]]
test_smiles = "O=C(Nc1n[nH]c2cc(-c3cc(F)ccc3F)ccc12)C1CC1"
value_measured = 1.65

[[record]]
test_smiles = "CCC(=O)Nc1ccc(C)c(-c2ccc(C(=O)NCC3CC3)cc2)c1"
value_measured = 0.77

[[record]]
test_smiles = "CCS(=O)(=O)c1ccc(OC)c(Nc2ncc(-c3cccc(-c4ccccc4F)c3)o2)c1"
value_measured = 0.06

[[record]]
test_smiles = "O=C1Nc2ccccc2/C1=C/Nc1ccc(-n2cncn2)cc1"
value_measured = 2.96

[[record]]
test_smiles = "CCN(CC)Cc1ccc(Nc2nccc(-c3cnn4ncccc34)n2)cc1"
value_measured = 0.69

[[record]]
test_smiles = "CCc1cccc(CC)c1/C=C/c1cncc(C(=O)NC)c1"
value_measured = 0.82

[[record]]
test_smiles = "NC(=O)c1cc(-c2ccc(F)cc2)cc(-c2ccncc2)c1N"
value_measured = 2.21

[[record]]
test_smiles = "COc1ccc(C2=C(N3CCc4ccccc43)C(=O)NC2=O)cc1"
value_measured = 2.76

[[record]]
test_smiles = "NS(=O)(=O)c1ccc(Nc2cc(-c3ccc(O)c(F)c3)n[nH]2)cc1"
value_measured = -1.97

[[record]]
test_smiles = "O=C1NC(=O)C(c2cccc(Cl)c2)=C1Nc1ccc(Cl)c(C(=O)O)c1"
value_measured = 1.73

[[record]]
test_smiles = "O=C(Nc1n[nH]c2cc(-c3ccccc3)ccc12)C1CC1"
value_measured = 3.04

[[record]]
test_smiles = "Cc1ccc(NC(=O)c2ccoc2)cc1-c1ccc(C(=O)NCC2CC2)cc1"
value_measured = 0.09

[[record]]
test_smiles = "COc1ccc(-c2ccc3c(NC(=O)C4CC4)n[nH]c3n2)cc1"
value_measured = 1.32

[[record]]
test_smiles = "COc1cc(N2CCN(C(C)C)CC2)ccc1Nc1nc(Nc2ccc(F)cc2C(=O)NC[C@@H](O)CO)c2cc[nH]c2n1"
value_measured = 1.77

[[record]]
test_smiles = "NS(=O)(=O)c1ccc(N/N=C2\\C(=O)Nc3ccc(C(=O)NCCCn4ccnc4)cc32)cc1"
value_measured = 4.69

